Source listed as patent US20230151068A1.

- MEASURED TARGET: biotinylated His-Avi-TEAD (194-411) (UniProt P28347)
- ASSAY NOTES: SSM screen, enrichment after two rounds of sorting
MEASUREMENT LABEL: enrichment score

Please review the following examples before continuing.
GSPDEYIERAEECCKKGDIQCCLRYFEESGDPNVMLICLFCP (designed binder) [K09E variant of SEQ ID NO: 1] ... 3.95
GSPDEYIERAKECCKMGDIQCCLRYFEESGDPNVMLICLFCP (designed binder) [K14M variant of SEQ ID NO: 1] ... -0.92
GSPDEYIERYKECCKKGDIQCCLRYFEESGDPNVMLICLFCP (designed binder) [A08Y variant of SEQ ID NO: 1] ... -3.35
GSPDEYIERAKECCKIGDIQCCLRYFEESGDPNVMLICLFCP (designed binder) [K14I variant of SEQ ID NO: 1] ... -0.99

a: GSPFEYIERAKECCKKGDIQCCLRYFEESGDPNVMLICLFCP (designed binder) [D02F variant of SEQ ID NO: 1]
b: GSPDEYIERAKTCCKKGDIQCCLRYFEESGDPNVMLICLFCP (designed binder) [E10T variant of SEQ ID NO: 1]
Lookup: Smaller enrichment score value? Options are a and b Pick one; state its label.
Found: a
(a: -3.41, b: -1.57)
